B1: Cyclin-F, residues 28 to 80; numbered along this chain, P41002 (parent)
chain: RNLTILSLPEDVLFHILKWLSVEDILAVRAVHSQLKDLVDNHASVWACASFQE

Variants of: B1
Assay: abundance fitness (aPCA) (normalised: wild type 0, dead -1); higher = more abundant; growth selection in yeast, the domain comes from the species named
Conditions: Homo sapiens
Ranges used to classify abundance fitness: bottom range (below -0.7), center range (-0.7 to below -0.3), top range (-0.3 or more)

[in] Kindly identify the class of `E53A` .
[out] top range

[in] Kindly identify the class of `L20W` .
[out] bottom range

[in] Kindly identify the class of `R29V` .
[out] center range

[in] Kindly identify the class of `V28C` .
[out] top range

[in] Kindly identify the class of `D40L` .
[out] bottom range

[in] Kindly identify the class of `L38T` .
[out] top range

[in] Kindly identify the class of `S21H` .
[out] center range

[in] Kindly identify the class of `A30W` .
[out] bottom range

[in] Kindly identify the class of `L13D` .
[out] center range
